Source listed as patent US20030232887A1.

# protocol.summary: Solubility of the allosteric effector compound in water and stabilizing agent solutions
# Assay type: physicochemical
# test.context: aqueous buffer; 0.5 M arginine solution, 23° C., pH 7.2-7.5; read-out: solubility
# Description: The pKa for 2-[4-[2-[(3,5-dimethylphenyl)amino]-2-oxoethyl]phenoxy]-2-methyl-propionic acid is about 3.5. Accordingly, there is an appreciable solubility at a pH of 7. The solubility of the sodium salt of 2-[4-[2-[(3,5-dimethylphenyl)amino]-2-oxoethyl]phenoxy]-2-methyl-propionic acid at a pH of 7 is about 50 mg/ml. […] It is thought that the addition of a stabilizing agent maintains the integrity of this small aggregate-like species. […]

| smiles.representation | solubility, mg/mL |
| --- | --- |
| Cc1cc(C)cc(NC(=O)Cc2ccc(OC(C)(C)C(=O)O)cc2)c1 | 155 |
